System: ncRNAs (SEQ ID NO 28-89)
Test: ncRNA arrays of melanocytes, keratinocytes, normal skin, melanoma cell lines and patient samples
Parameters: species or system human
Settings: melanoma patient 9 sample compared to normal skin
Experimental: An ncRNA array platform that contains over 10,000 putative (>200 nt) ncRNAs including most of the known ncRNAs in mouse and human was conducted to evaluate ncRNAs within melanoma. Lack of coding potential was estimated by an algorithm that scores various characteristics of protein-coding genes, including open reading frame length, synonymous/non-synonymous base substitution rates and similarity to known proteins. […]
One threshold, 3, splits the recorded ncRNA array expression, patient 9 values: lower ones are class 1, equal or higher ones are class 0.

- substance: "SEQ ID NO 89 (GGACACAGAGAGTCATGCACCAGCCCAGTGAGAACCAATTCAGAGCCAAATGCCAAACCC; listed as DNA, chemistry not given here; listed as Homo sapiens)"
  cat: "class 1"
- substance: "SEQ ID NO 37 (ACGCACTGGGCGTTGAAGCAGTGCTTTCTGGATTAAATACGAAATACTGATGTCACAAGC; DNA, backbone and methylation of C not given here; listed as Homo sapiens)"
  cat: "class 1"
- substance: "SEQ ID NO 36 (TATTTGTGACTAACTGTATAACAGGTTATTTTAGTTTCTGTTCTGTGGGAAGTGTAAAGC; listed as DNA, chemistry not given here; listed as Homo sapiens)"
  cat: "class 0"
- substance: "SEQ ID NO 74 (TATATTACAGGAGTTGTCTATACGATTATAGTACCTGATTCTTTGGACATATCATTGAAC; listed as DNA, chemistry not given here; listed as Homo sapiens)"
  cat: "class 1"
- substance: "SEQ ID NO 44 (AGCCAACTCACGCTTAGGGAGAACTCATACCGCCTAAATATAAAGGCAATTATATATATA; listed as DNA, chemistry not given here; listed as Homo sapiens)"
  cat: "class 1"

###

test system: ncRNAs (SEQ ID NO 28-89); test: ncRNA arrays of melanocytes, keratinocytes, normal skin, melanoma cell lines and patient samples; set-up: species or system human; conditions: melanoma patient 23 sample compared to normal skin
One threshold, -0.4, splits the recorded ncRNA array expression, patient 23 values: lower ones are label 1, equal or higher ones are label 0.

- substance: "SEQ ID NO 29 (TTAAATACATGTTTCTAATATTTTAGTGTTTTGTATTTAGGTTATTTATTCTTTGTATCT; DNA, backbone and methylation of C not given here; listed as Homo sapiens)"
  cat: "label 0"
- substance: "SEQ ID NO 45 (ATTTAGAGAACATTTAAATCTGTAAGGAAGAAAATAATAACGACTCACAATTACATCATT; listed as DNA, chemistry not given here; listed as Homo sapiens)"
  cat: "label 0"
- substance: "SEQ ID NO 85 (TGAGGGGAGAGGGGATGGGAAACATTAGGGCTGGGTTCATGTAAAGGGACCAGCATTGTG; listed as DNA, chemistry not given here; listed as Homo sapiens)"
  cat: "label 1"
- substance: "SEQ ID NO 43 (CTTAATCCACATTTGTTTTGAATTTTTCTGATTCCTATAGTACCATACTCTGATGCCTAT; listed as DNA, chemistry not given here; listed as Homo sapiens)"
  cat: "label 1"

###

tested on: ncRNAs (SEQ ID NO 28-89); assay: ncRNA arrays of melanocytes, keratinocytes, normal skin, melanoma cell lines and patient samples; set-up: species or system human; settings: melanoma patient 10 sample compared to normal skin
One threshold, -0.8, splits the recorded ncRNA array expression, patient 10 values: lower ones are Criterion met, equal or higher ones are Criterion not met.

- substance: "SEQ ID NO 57 (TTGTTGTTTTGGGAGATACCCTGTTTAGCCTGAAAGGATTGAGATACTGTAATTGCTATG; listed as DNA, chemistry not given here; listed as Homo sapiens)"
  assay-target: "ncRNAs (SEQ ID NO 28-89)"
  cat: "Criterion not met"
- substance: "SEQ ID NO 84 (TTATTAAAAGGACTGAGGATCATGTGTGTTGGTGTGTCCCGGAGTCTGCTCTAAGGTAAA; listed as DNA, chemistry not given here; listed as Homo sapiens)"
  assay-target: "ncRNAs (SEQ ID NO 28-89)"
  cat: "Criterion not met"
- substance: "SEQ ID NO 63 (CTCACACGCACCCTTTCACTGTTTCTTAGTAATTTGTTTGTCTACAGACACAGACGGGAA; listed as DNA, chemistry not given here; listed as Homo sapiens)"
  assay-target: "ncRNAs (SEQ ID NO 28-89)"
  cat: "Criterion met"
- substance: "SEQ ID NO 55 (CCTCTCCCCTTCTTGCAAAAAATATTCTATATTCAAGTTTAGGAGAAAACAGAATACTTG; listed as DNA, chemistry not given here; listed as Homo sapiens)"
  assay-target: "ncRNAs (SEQ ID NO 28-89)"
  cat: "Criterion met"
- substance: "SEQ ID NO 77 (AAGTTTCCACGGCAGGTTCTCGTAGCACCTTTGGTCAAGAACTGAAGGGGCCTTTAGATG; listed as DNA, chemistry not given here; listed as Homo sapiens)"
  assay-target: "ncRNAs (SEQ ID NO 28-89)"
  cat: "Criterion met"
- substance: "SEQ ID NO 44 (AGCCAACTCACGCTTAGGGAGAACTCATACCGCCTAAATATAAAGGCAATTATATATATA; listed as DNA, chemistry not given here; listed as Homo sapiens)"
  assay-target: "ncRNAs (SEQ ID NO 28-89)"
  cat: "Criterion not met"
- substance: "SEQ ID NO 46 (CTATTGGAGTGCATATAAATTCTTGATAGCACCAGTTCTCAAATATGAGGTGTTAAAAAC; listed as DNA, chemistry not given here; listed as Homo sapiens)"
  assay-target: "ncRNAs (SEQ ID NO 28-89)"
  cat: "Criterion not met"
- substance: "SEQ ID NO 41 (CTCGTAACACTGGGAAAACTGCATACAATATTTAGAAGGAACACTAATACAGCAGAATCT; listed as DNA, chemistry not given here; listed as Homo sapiens)"
  assay-target: "ncRNAs (SEQ ID NO 28-89)"
  cat: "Criterion met"
- substance: "SEQ ID NO 43 (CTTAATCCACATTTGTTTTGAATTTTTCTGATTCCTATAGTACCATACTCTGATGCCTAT; listed as DNA, chemistry not given here; listed as Homo sapiens)"
  assay-target: "ncRNAs (SEQ ID NO 28-89)"
  cat: "Criterion met"
- substance: "SEQ ID NO 52 (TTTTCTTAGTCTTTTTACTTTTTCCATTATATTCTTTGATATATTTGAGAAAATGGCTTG; listed as DNA, chemistry not given here; listed as Homo sapiens)"
  assay-target: "ncRNAs (SEQ ID NO 28-89)"
  cat: "Criterion not met"
- substance: "SEQ ID NO 60 (ACTAACAGCACTGGAGGGTGTAGTGTTTCCTACTTTATGGATGAGTGTACTGTGGGCTTC; listed as DNA, chemistry not given here; listed as Homo sapiens)"
  assay-target: "ncRNAs (SEQ ID NO 28-89)"
  cat: "Criterion not met"
- substance: "SEQ ID NO 56 (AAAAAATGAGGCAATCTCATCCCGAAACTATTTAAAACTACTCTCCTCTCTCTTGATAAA; listed as DNA, chemistry not given here; listed as Homo sapiens)"
  assay-target: "ncRNAs (SEQ ID NO 28-89)"
  cat: "Criterion met"

###

Reported ncRNA array expression, patient 22 is given for each of the following substances.
system: ncRNAs (SEQ ID NO 28-89); assay: ncRNA arrays of melanocytes, keratinocytes, normal skin, melanoma cell lines and patient samples; set-up: species or system human; settings: melanoma patient 22 sample compared to normal skin
measured-metric: ncRNA array expression, patient 22

- substance: "SEQ ID NO 43 (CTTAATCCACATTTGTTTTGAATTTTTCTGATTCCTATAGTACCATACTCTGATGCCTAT; listed as DNA, chemistry not given here; listed as Homo sapiens)"
  measured-metric: "ncRNA array expression, patient 22"
  observed-measurement: "−1.451"
- substance: "SEQ ID NO 88 (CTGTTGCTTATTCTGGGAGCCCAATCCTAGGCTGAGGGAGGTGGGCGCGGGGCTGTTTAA; listed as DNA, chemistry not given here; listed as Homo sapiens)"
  measured-metric: "ncRNA array expression, patient 22"
  observed-measurement: "−0.8009"
- substance: "SEQ ID NO 30 (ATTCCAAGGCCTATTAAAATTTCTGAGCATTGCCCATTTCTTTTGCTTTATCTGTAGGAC; DNA, backbone and methylation of C not given here; listed as Homo sapiens)"
  measured-metric: "ncRNA array expression, patient 22"
  observed-measurement: 1.187
- substance: "SEQ ID NO 35 (GTTTCCATTGAAGAATATTACGCTCGGGGACAAGCCAGGTGCACGACCAAAAATTTAAAA; DNA, backbone and methylation of C not given here; listed as Homo sapiens)"
  measured-metric: "ncRNA array expression, patient 22"
  observed-measurement: 0.8167
- substance: "SEQ ID NO 40 (GTTAAAGACTAAATTAGTGATTTGGGAGATCAAGCCAATGGGCTTGTCTAAAACCTAGTC; listed as DNA, chemistry not given here; listed as Homo sapiens)"
  measured-metric: "ncRNA array expression, patient 22"
  observed-measurement: 0.9011
- substance: "SEQ ID NO 68 (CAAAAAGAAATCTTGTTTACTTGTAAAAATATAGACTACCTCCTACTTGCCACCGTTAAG; listed as DNA, chemistry not given here; listed as Homo sapiens)"
  measured-metric: "ncRNA array expression, patient 22"
  observed-measurement: "−0.8953"

// provenance: patent US20110143948A1
